Target: T1, full-length human Siglec15 with C-terminal flag and Myc tags on HEK293 cells (human, UniProt Q6ZMC9 20-328)
T1 construct: whole, on cells; also called Siglec15/HEK293; HEK293-Siglec 15; not shown: C-terminal flag and Myc tags from pCMV6-Entry vector
T1 sequence (looked up): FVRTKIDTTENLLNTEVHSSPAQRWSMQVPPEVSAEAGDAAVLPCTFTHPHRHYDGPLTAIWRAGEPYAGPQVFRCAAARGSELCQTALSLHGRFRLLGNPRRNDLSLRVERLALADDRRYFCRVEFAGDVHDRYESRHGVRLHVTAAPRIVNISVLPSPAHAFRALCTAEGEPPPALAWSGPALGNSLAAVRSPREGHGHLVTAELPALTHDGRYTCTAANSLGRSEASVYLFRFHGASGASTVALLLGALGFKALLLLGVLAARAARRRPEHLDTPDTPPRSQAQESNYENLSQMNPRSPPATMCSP
Experiment: FACS on Siglec15/HEK293 cells, scFv, anti-His detection
Simple rule here: EC50 less than 10 nM is yes (1), otherwise no (0).

Solved entries:
2020EP032-A12 scFv (scFv, V domains shown, Tested as a single-chain scFv made in E. coli with a C-terminal flag and 6x His tag) VH: QMQLVQSGGGVVQPGRSLRLSCAASGFTFSSYGMHWVRQAPGKGLEWVAVISDDGSNKYYADSVKGRFTISRDNSKNTLYLQMNSLRAEDTAVYYCAKKDVATILFDNWGQGTLVTVSS VL: VIWMTQSPSTLSASVGDRVTITCRASQSITRWLAWYQQKPGKAPKLLIYKTSDLDGGVPSRFSGSESGAEFTLTISSLQPDDVATYFCQHYNTRSWTFGQGTKVELK: yes (1)
2019EP47-A02 scFv (scFv, V domains shown, Tested as a single-chain scFv made in E. coli with a C-terminal flag and 6x His tag) VH: EVQLVQSGGGVVQPGRSLRLSCAASGFTFSSYAMHWVRQAPGKGLEWVAVISYDGSNKYYADSVKGRFTISRDNSKNTLYLQMNSLRAEDTAVYYCARSRYSSSLRRYYGMDVWGQGTTVTVSS VL: AIQLTQSPSSLSASVGDRVTITCQATHDIANYLNWYQQKPGKAPKLLIYAASNLETGVPSRFSGSGSGTDFTFAISSLQPEDIAVYYCQQYDNLPLTFGGGTKVEIK: no (0)
2020EP032-B03 scFv (scFv, V domains shown, Tested as a single-chain scFv made in E. coli with a C-terminal flag and 6x His tag) VH: QVQLQQWGAGLLKPSETLSLTCAVYGGSFSGYYWSWIRQPPGKGLEWIGEINHSGSTNYNPSLKSRVTISVDTSKNQFSLKLSSVTAADTAVYYCARGPLRKYYDFWSGSRNYYYYGMDVWGQGTTVTVSS VL: QPVLTQDPAVSVALGQTVRITCQGDSLRSNYASWYQLKPGQAPVLVIYDKNNRPSGIPDRFSGSNSGNTASLTIAGAQAEDEADYYCTSRDSSGTVFGGGTKLTVL: yes (1)
2020EP083-G11 scFv (scFv, V domains shown, Tested as a single-chain scFv made in E. coli with a C-terminal flag and 6x His tag) VH: EVQLVESGGGLVEPGGSLRLSCAASGFTFSSYSMSWVRQAPGKGLEWVGRIKSETDGGTTDYAGPAKGKFIISRNDAENTVSLQMNSLKFEDTAVYHCTTDSSSSWFSYSFDNWGQETLVTVSS VL: EIVMTQSPATLSVSPGERATLSCRASQNVNSNLAWYQQKTGQAPRLLIFGASTRATGIPARFSGSGSGTEFTLTIGSLQSEDFAVYYCQQYNNWPPTFGGWTKVEIK: yes (1)
2019EP47-C12 scFv (scFv, V domains shown, Tested as a single-chain scFv made in E. coli with a C-terminal flag and 6x His tag) VH: EVQLVESGGGLEKPGRSLRLSCTASGFTFGDYAMSWFRQAPGKGLEWVGFITTKPYGGTTEYAASVKGRFTISRDDSKSIAYLQMNSLKTEDTAEYYCTKDSEAYYGSGSYMVGYWGQGTLVTVSS VL: QSVLTQPPSVSLAPGKTATITCGGDNIENKDVHWYQQKPGQAPVLVIRFAADRPSGIPERFSGSSSGNTATLTISRVEAGDEADYYCQVWQSTRDHPVVVFGGGTKLTVL: no (0)

stdin: Identify whether the binder 2019EP47-A10 scFv (scFv, V domains shown, Tested as a single-chain scFv made in E. coli with a C-terminal flag and 6x His tag) VH: QMQLVQSGGGVVQPGRSLRLSCAASGFTFSSYGMHWVRQAPGKGLEWVAVISYDGSNKYYADSVKDRFTISRDNSKNTLYLQMNSLRAEDTAVYYCAKDIVGDSGSYPIYYYYGMDVWGQGTTVTVSS VL: SQSALTQPHSVSESPGKTVTISCTRSSGSIASNYVQWYQQRPGSAPSTVIYEDNQRPSGVPDRFSGSVDISSNSASLTISGLQTEDEADYYCQSYDNDNMVFGGGTKLTVL records EC50 below 10 nM.
stdout: no (0)

stdin: For this binder, is EC50 lower than 10 nM? 2020EP032-H11 scFv (scFv, V domains shown, Tested as a single-chain scFv made in E. coli with a C-terminal flag and 6x His tag) VH: EVQLVESGGGLVKPGGSLRLSCAASGFTFSSYSMNWVRQAPGKGLEWVSSISSSSSYIYYADSVKGRFTISRDNAKNSLYLQMNSLRAEDTAVYYCARDYRGYSGQNYYGMDVWGQGTTVTVSS VL: QSALTQPPSVSAAPRQKVTISCSGSSSNIGNNDVSWYQQLPGTVPKLLIYDNNKRPSGIPDRFSGSKSGTSASLGITGLQTGDEADYYCGVWDSSLSGYVFGTGTKVTVL
stdout: no (0)

stdin: Is it true that EC50 reported for 2019EP47-A05 scFv (scFv, V domains shown, Tested as a single-chain scFv made in E. coli with a C-terminal flag and 6x His tag) VH: QMQLVQSGAEVKKPGSSVKVSCKASGGTFSSYAISWVRQAPGQGLEWMGRIIPILGIANYAQKFQGRVTITADKSTSTAYMELSSLRSEDTAVYYCAVNTYYYDSSGYYYEYFDYWGQGTLVTVSS VL: EIVLTQSPSSLSASVGDRVTITCQASQHINNHLNWYQQKPGKGPKLLIYDVSNLEAGVPSRFSASGSGTDFSFTISSLQPEDFATYYCQQYDSLPLTFGQGTKVEVK is less than 10 nM?
stdout: no (0)

stdin: Criterion: EC50 strictly below 10 nM. Is it met by 2020EP085-G5 scFv (scFv, V domains shown, Tested as a single-chain scFv made in E. coli with a C-terminal flag and 6x His tag) VH: QVQLVQSGAEVKKPGASVKVSCKASGYTFTDYYMHWVRQAPGQGLEWMGWINPNSGGTNYAQKFQGRVTMTRDTSITTAYMELSWLRSDDTAVYYCAREVGTTTTGVDYWGQGTLVTVSS VL: VIWMTQSPSSLSASVGDRVTFTCQASQDINIYLTWYQIKPGKAPKVLIYDASTLESGVPSRFSGSGFGTHFVFTISSLQPEDFATYYCQHYDSLPLTFGGGTKVEIK ?
stdout: yes (1)

stdin: Does this binder meet the criterion EC50 < 10 nM? 2020EP032-A08 scFv (scFv, V domains shown, Tested as a single-chain scFv made in E. coli with a C-terminal flag and 6x His tag) VH: QVQLQQWGAGLLKPSETLSLTCAVYGGSFSGYYWSWIRQPPGKGLEWIGEINHSGSTNYNPSLKSRVTISVDTSKNQFSLKLSSVTAADTAVYYCARGVYYYDSSGPRDYFDYWGQGTLVTVSS VL: DIVMTQSPSSLSASVGDRVTITCQASQDISNYLNWYQQKPGKAPKLLIYDASNLKTGVPSRFSGSGSGTDFTFTITSLQPEDIGTYFCQQYGNLPYTFGQGTKLEIK
stdout: yes (1)

stdin: Please determine if 2020EP032-C09 scFv (scFv, V domains shown, Tested as a single-chain scFv made in E. coli with a C-terminal flag and 6x His tag) VH: QVQLVESGGGLVKPGGSLRLSCAASGFSFNNAWMSWVRQAPGKGLEWVGRIKSKTDDATTEYAAPVEGRFTISRDDSKNMLYLQMDSLKTEDTAVYYCTTDLRWEELPMYWGQGTLVTVSS VL: VIWMTQSPSSLSASVGDRVTITCRASQGIRNDLGWYQQKPGKAPKVLIYAASSLQSGVPSRFSGSGSGTDFTLTISSLQPEDFATYYCLQDYNYPQTFGQGTKVGIKR is below 10 nM in terms of EC50.
stdout: yes (1)
